Reference source: patent US10125098B2

# studySystem: hNav1.7 (Homo sapiens, UniProt Q15858)
# Construct: expressed in transfected cells
# Sequence (Q15858 1-1977 isoform Q15858-3): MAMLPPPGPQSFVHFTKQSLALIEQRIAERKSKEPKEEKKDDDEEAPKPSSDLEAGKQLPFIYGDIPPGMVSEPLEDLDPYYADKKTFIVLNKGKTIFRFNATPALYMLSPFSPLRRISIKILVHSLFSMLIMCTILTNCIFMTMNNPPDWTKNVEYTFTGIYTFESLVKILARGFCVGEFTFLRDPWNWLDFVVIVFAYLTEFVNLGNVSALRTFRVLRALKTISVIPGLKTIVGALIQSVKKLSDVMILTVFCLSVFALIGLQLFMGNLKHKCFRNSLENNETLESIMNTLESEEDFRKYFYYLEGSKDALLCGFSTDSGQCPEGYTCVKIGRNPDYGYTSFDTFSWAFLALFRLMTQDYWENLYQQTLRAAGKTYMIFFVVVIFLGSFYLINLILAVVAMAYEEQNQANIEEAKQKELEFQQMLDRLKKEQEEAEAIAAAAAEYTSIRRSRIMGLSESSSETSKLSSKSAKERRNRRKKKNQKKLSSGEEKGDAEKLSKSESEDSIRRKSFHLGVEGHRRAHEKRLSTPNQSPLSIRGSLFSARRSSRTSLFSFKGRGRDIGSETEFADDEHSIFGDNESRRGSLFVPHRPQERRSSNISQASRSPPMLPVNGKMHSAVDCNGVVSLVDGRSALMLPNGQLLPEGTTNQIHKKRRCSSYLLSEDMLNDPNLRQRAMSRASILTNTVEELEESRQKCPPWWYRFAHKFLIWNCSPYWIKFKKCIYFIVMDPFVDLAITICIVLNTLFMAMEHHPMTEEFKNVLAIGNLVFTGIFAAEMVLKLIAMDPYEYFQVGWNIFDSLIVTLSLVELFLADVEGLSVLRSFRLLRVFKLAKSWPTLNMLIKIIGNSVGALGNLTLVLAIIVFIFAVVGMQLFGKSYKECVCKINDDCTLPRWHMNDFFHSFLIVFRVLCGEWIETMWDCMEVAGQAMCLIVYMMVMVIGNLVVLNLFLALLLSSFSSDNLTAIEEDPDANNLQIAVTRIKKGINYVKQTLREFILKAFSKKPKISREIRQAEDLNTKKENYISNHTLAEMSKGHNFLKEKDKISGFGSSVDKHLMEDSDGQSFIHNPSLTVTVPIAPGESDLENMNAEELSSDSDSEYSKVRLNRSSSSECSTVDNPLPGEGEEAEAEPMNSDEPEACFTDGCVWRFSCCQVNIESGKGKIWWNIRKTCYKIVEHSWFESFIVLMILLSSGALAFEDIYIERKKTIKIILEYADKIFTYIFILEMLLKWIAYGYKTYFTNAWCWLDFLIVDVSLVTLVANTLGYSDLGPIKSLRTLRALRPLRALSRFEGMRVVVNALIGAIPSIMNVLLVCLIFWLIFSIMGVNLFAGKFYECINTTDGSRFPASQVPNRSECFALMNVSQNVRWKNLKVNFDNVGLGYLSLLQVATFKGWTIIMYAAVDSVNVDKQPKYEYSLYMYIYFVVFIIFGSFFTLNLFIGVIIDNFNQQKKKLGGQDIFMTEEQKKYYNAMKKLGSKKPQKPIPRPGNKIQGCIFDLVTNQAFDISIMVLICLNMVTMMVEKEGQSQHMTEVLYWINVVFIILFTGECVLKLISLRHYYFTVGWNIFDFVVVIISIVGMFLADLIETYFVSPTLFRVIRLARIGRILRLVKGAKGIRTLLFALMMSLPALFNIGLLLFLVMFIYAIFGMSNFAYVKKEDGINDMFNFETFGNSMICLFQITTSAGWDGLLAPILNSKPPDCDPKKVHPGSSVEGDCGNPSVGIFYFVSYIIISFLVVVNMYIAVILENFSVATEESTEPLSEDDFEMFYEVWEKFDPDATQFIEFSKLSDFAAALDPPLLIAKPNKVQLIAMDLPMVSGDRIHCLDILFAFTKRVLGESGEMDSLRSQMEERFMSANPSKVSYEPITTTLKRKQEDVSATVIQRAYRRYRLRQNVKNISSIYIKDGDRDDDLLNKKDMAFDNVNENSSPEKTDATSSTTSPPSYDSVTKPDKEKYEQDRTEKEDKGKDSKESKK
# Sequence (Q07699 19-218 partner): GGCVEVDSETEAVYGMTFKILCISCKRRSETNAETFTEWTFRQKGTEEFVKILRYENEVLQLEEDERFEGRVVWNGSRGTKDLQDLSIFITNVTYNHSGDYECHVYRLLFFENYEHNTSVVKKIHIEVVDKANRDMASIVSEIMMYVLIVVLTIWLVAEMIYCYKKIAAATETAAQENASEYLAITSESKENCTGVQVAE
# methodSummary: Tritiated compound binding (LBA) to membranes from cells expressing hNav1.7 and the β1 subunit, competitive binding
# conditionDetails: competitive binding vs 100 pM [3H]compound, 18 h, room temperature, membranes with hNav1.7 and β1 subunit
Where a name gives a salt, the structure may show the parent alone.
Rule: IC50 below 600 nM gives criterion met, anything at or above gives criterion not met.

[
  {
    "compound": "O=C(O)[C@@H]1C[C@H]2C[C@H]2N1C(=O)c1cc(C2CC2)c(OCC23CC4CC(CC(C4)C2)C3)cc1F",
    "studySystem": "hNav1.7 (Homo sapiens, UniProt Q15858)",
    "class": "criterion met"
  },
  {
    "compound": "CO[C@@H]1CN(C(=O)c2cc(C3CC3)c(OCC34CC5CC(CC(C5)C3)C4)cc2F)[C@H](C(=O)O)[C@H]1C",
    "studySystem": "hNav1.7 (Homo sapiens, UniProt Q15858)",
    "class": "criterion met"
  },
  {
    "compound": "O=C(O)[C@@H]1CCCN1C(=O)c1cc(C2CC2)c(OCC23CC4(F)CC(F)(CC(F)(C4)C2)C3)cc1F",
    "studySystem": "hNav1.7 (Homo sapiens, UniProt Q15858)",
    "class": "criterion not met"
  },
  {
    "compound": "O=C(O)[C@@H]1[C@@H]2C[C@@H]2CN1C(=O)c1cc(C2CC2)c(OCC23CC4CC(CC(C4)C2)C3)cc1F (racemic)",
    "studySystem": "hNav1.7 (Homo sapiens, UniProt Q15858)",
    "class": "criterion not met"
  },
  {
    "compound": "CC(C)[C@@H](C(=O)O)N(C)C(=O)c1cc(C2CC2)c(COc2cc(Cl)cc(OC(F)(F)F)c2)cc1F",
    "studySystem": "hNav1.7 (Homo sapiens, UniProt Q15858)",
    "class": "criterion not met"
  },
  {
    "compound": "N#CC1(COc2cc(F)c(C(=O)N3CCC[C@H]3C(=O)O)cc2Cl)C2CC3CC(C2)CC1C3 (some centres unmarked)",
    "studySystem": "hNav1.7 (Homo sapiens, UniProt Q15858)",
    "class": "criterion not met"
  },
  {
    "compound": "O=C(O)[C@@H]1CCCN1C(=O)c1cc(C2CC2)c(OCC2CCN(Cc3nc(-c4ccccc4Cl)no3)CC2)cc1F [Example 29, trifluoroacetic acid salt]",
    "studySystem": "hNav1.7 (Homo sapiens, UniProt Q15858)",
    "class": "criterion not met"
  },
  {
    "compound": "O=C(O)C[C@H](NC(=O)c1cc(C2CC2)c(OCC23CC4CC(CC(C4)C2)C3)cc1F)C(=O)O",
    "studySystem": "hNav1.7 (Homo sapiens, UniProt Q15858)",
    "class": "criterion not met"
  },
  {
    "compound": "C[C@H]1CCN(C(=O)c2cc(C3CC3)c(OCC34CC5CC(CC(C5)C3)C4)cc2F)[C@@H]1C(=O)O",
    "studySystem": "hNav1.7 (Homo sapiens, UniProt Q15858)",
    "class": "criterion met"
  },
  {
    "compound": "CC1(COc2cc(F)c(C(=O)N3CCC[C@H]3C(=O)O)cc2C2CC2)CCC(F)(F)CC1",
    "studySystem": "hNav1.7 (Homo sapiens, UniProt Q15858)",
    "class": "criterion not met"
  },
  {
    "compound": "O=C(O)[C@@H]1CCCN1C(=O)c1cc(F)c(Oc2ccc(Cl)cc2-c2ccccc2)cc1F",
    "studySystem": "hNav1.7 (Homo sapiens, UniProt Q15858)",
    "class": "criterion not met"
  },
  {
    "compound": "O=C(N[C@H](C(=O)O)C1CC1)c1cc(C2CC2)c(OCC2CCN(C(c3cc(Cl)cc(Cl)c3)C(F)(F)F)CC2)cc1F (some centres unmarked)",
    "studySystem": "hNav1.7 (Homo sapiens, UniProt Q15858)",
    "class": "criterion met"
  },
  {
    "compound": "C[C@H]1OCN(C(=O)c2cc(C3CC3)c(OCC3CCN([C@H](c4cc(Cl)cc(Cl)c4)C(F)(F)F)CC3)cc2F)[C@@H]1C(=O)O (single isomer, unassigned) [Example 138a]",
    "studySystem": "hNav1.7 (Homo sapiens, UniProt Q15858)",
    "class": "criterion met"
  },
  {
    "compound": "C[C@H]1CCN(C(=O)c2cc(C3CC3)c(OCC3CCN([C@H](c4cc(Cl)cc(Cl)c4)C(F)(F)F)CC3)cc2F)[C@@H]1C(=O)O (single isomer, unassigned) [Example 121a]",
    "studySystem": "hNav1.7 (Homo sapiens, UniProt Q15858)",
    "class": "criterion met"
  }
]
